Tested System: T1, recombinant human IL-12 (rhIL-12) (human, UniProt P29459 23-219; P29460 23-328)
T1 construct: disulfide-linked p35/p40 heterodimer (p70); also called IL-12 p70; rec. human IL12
T1 sequence (looked up) 1: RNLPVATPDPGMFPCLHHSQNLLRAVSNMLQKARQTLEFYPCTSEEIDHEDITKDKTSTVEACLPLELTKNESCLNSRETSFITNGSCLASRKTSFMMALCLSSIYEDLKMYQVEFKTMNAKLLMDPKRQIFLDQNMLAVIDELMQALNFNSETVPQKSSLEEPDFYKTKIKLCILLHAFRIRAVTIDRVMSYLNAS
T1 sequence (looked up) 2: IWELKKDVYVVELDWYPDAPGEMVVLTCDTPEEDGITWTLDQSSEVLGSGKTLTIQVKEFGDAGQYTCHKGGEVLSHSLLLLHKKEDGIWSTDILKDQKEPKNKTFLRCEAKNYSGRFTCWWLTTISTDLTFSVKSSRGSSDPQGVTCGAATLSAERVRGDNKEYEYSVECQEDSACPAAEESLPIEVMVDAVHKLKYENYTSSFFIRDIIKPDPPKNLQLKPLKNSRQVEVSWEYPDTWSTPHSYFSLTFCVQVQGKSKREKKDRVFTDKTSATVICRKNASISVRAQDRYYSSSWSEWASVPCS
Assay Info: receptor binding assay, 125I-hIL-12 on PHA blasts
Method: PHA blast cells isolated as described above, were washed once and resuspended in binding buffer to a cell density of 2×10⁷ cells/ml. […] The cell pellet was examined for cell bound radioactivity using a gamma counter. […] Incubations were carried out in duplicate.
Metric: log10 of IC50 (log10 of the value in nM)
Transform log10 | Measure IC50 | Unit nM

Use the examples below as a reference point.
Binder | log10 of IC50
Y61-L50Y (scFv, V domains shown) VH: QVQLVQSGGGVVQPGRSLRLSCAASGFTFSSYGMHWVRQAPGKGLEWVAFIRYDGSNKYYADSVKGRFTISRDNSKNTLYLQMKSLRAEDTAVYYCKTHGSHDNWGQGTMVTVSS VL: QSVLTQPPSVSGAPGQRVTISCSGSRSNIGSNTVKWYQQLPGTAPKLLIYYNDQRPSGVPDRFSGSKSGTSASLAITGLQAEDEADYYCQSYDRGTHPALLFGTGTKVTVL | -1.70
G6 (scFv, V domains shown, scFv clone) VH: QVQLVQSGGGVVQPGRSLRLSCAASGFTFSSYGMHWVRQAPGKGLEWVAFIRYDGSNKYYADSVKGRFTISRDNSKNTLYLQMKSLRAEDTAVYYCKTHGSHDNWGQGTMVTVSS VL: SYVLTQPPSVSGTPGQRVTISCSGGRSNIGSNTVKWYQQLPGTAPKLLIYGNDQRPSGVPDRFSGSKSGTSASLAITGVQAEDEADYYCQSYDRGTHPLTIFGTGTKVTVL | -1.00
A12 (scFv, V domains shown, scFv clone) VH: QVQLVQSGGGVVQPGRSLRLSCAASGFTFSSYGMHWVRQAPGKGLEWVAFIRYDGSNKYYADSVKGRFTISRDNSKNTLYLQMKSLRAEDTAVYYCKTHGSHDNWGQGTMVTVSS VL: SYVLTQPPSVSGTPGQRVTISCSGGRSNIGSNTVKWYQQLPGTAPKLLIYGNDQRPSGVPDRFSGSKSGTSASLAITGVQAEDEADYYCQSYDRGTTPRPMFGTGTKVTVL | -0.60
Y139 (scFv, V domains shown, scFv clone) VH: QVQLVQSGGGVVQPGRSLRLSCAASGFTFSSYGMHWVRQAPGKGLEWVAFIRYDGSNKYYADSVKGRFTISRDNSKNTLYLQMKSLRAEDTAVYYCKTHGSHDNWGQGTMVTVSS VL: SYVLTQPPSVSGTPGQRVTISCSGGRSNIGSNTVKWYQQLPGTAPKLLIYGNDQRPSGVPDRFSGSKSGTSASLAITGVQAEDEADYYCQSYDRGSHPALTFGTGTKVTVL | -1.52

QUERY: Tell me measured log10 of IC50 for Y38 (scFv, V domains shown, scFv clone) VH: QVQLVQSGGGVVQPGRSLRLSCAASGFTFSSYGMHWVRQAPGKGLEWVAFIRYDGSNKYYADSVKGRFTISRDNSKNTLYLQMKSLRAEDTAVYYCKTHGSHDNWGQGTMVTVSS VL: SYVLTQPPSVSGTPGQRVTISCSGGRSNIGSNTVKWYQQLPGTAPKLLIYGNDQRPSGVPDRFSGSKSGTSASLAITGVQAEDEADYYCQSYDRGTHPSITFGTGTKVTVL please.
RESULT: -1.26
